target: HLA-A*02 (Homo sapiens, UniProt P04439, D140Y/D185E/D98H/E176V/E277Q/G131W/G231S/I119V/I121R/I166T/I218V/L300P/N151K/N90K/P208A/P217A/Q86G/Q94H/R138H/R169H); construct: made in house; assay: MHC binding assay, UV-ligand exchange with beta2m ELISA (peptide exchange yield); conditions: binding to HLA-A*02
endpoint_name: Peptide exchange (MHC class I binding score, peptide exchange yield)

Some entries whose results are on file:
substance: 21 (AIQDEIRSV; listed as Homo sapiens) [compound 21]
assay_result: +++ (50%-75% = +++)

substance: 150 (VLYDRPLKI; listed as Homo sapiens) [compound 150]
assay_result: +++ (50%-75% = +++)

substance: 30 (AMIEEVFEA; listed as Homo sapiens) [compound 30]
assay_result: ++ (20%-49% = ++)

substance: 238 (GLYERPTAA; listed as Homo sapiens) [compound 238]
assay_result: ++ (20%-49% = ++)

substance: 121 (FTIFRTISV; listed as Homo sapiens) [compound 121]
assay_result: +++ (50%-75% = +++)

substance: 31 (TITETTVEV; listed as Homo sapiens) [compound 31]
assay_result: +++ (50%-75% = +++)

Peptide exchange (MHC class I binding score, peptide exchange yield) reading for 76 (AVGPVHNSV; listed as Homo sapiens) [compound 76] : ++ (20%-49% = ++)

Peptide exchange (MHC class I binding score, peptide exchange yield) reading for 110 (FLLGVSKEV; listed as Homo sapiens) [compound 110] : +++ (50%-75% = +++)

Peptide exchange (MHC class I binding score, peptide exchange yield) reading for 263 (VLLSEQGDVKL; listed as Homo sapiens) [compound 263] : ++ (20%-49% = ++)

###

test system: HLA-A*24; assay: MHC binding assay, UV-ligand exchange with beta2m ELISA (peptide exchange yield); design: species or system human; conditions: binding to HLA-A*24
endpoint_name: Peptide exchange (MHC class I binding score, peptide exchange yield)

Some entries whose results are on file:
substance: 272 (QYLQDAYSF; listed as Homo sapiens) [compound 272]
assay_result: ++++ (> = 75% = ++++)

substance: 206 (EYQENFLSF; listed as Homo sapiens) [compound 206]
assay_result: +++ (50%-75% = +++)

substance: 279 (TYIESASEL; listed as Homo sapiens) [compound 279]
assay_result: +++ (50%-75% = +++)

substance: 171 (LFIPSSKLLFL; listed as Homo sapiens) [compound 171]
assay_result: +++ (50%-75% = +++)

substance: 283 (TYGDAGLTYTF; listed as Homo sapiens) [compound 283]
assay_result: +++ (50%-75% = +++)

substance: 198 (LYLDKATLI; listed as Homo sapiens) [compound 198]
assay_result: +++ (50%-75% = +++)

substance: 222 (TFSVSSHLF; listed as Homo sapiens) [compound 222]
assay_result: +++ (50%-75% = +++)

substance: 282 (KFVDSTFYL; listed as Homo sapiens) [compound 282]
assay_result: ++++ (> = 75% = ++++)

Peptide exchange (MHC class I binding score, peptide exchange yield) reading for 217 (FFPPTRQMGLLF; listed as Homo sapiens) [compound 217] : ++++ (> = 75% = ++++)

###

tested on: HLA-A*24; test: MHC binding assay, UV-ligand exchange with beta2m ELISA (peptide exchange yield); set-up: species or system human; details: binding to HLA-A*24
endpoint_name: Peptide exchange (MHC class I binding score, peptide exchange yield)

Some entries whose results are on file:
substance: 277 (VYQGHTALL; listed as Homo sapiens) [compound 277]
assay_result: ++++ (> = 75% = ++++)
//
substance: 284 (RYLNKAFHI; listed as Homo sapiens) [compound 284]
assay_result: +++ (50%-75% = +++)
//
substance: 285 (HYPPVQVLF; listed as Homo sapiens) [compound 285]
assay_result: +++ (50%-75% = +++)
//
substance: 164 (KFSSFSLFF; listed as Homo sapiens) [compound 164]
assay_result: +++ (50%-75% = +++)
//
substance: 211 (YYLEVGKTLI; listed as Homo sapiens) [compound 211]
assay_result: ++++ (> = 75% = ++++)
//
substance: 207 (AYVVFVSTL; listed as Homo sapiens) [compound 207]
assay_result: ++ (20%-49% = ++)
//
substance: 210 (IYTMIYRNL; listed as Homo sapiens) [compound 210]
assay_result: ++++ (> = 75% = ++++)
//
substance: 224 (QYLENLEKL; listed as Homo sapiens) [compound 224]
assay_result: +++ (50%-75% = +++)

HLA-A*24 Peptide exchange (MHC class I binding score, peptide exchange yield) of 161 (IYLVSIPEL; listed as Homo sapiens) [compound 161] is ++++ (> = 75% = ++++)

HLA-A*24 Peptide exchange (MHC class I binding score, peptide exchange yield) of 187 (TYLRDQHFL; listed as Homo sapiens) [compound 187] is ++++ (> = 75% = ++++)

HLA-A*24 Peptide exchange (MHC class I binding score, peptide exchange yield) of 209 (TYKDEGNDYF; listed as Homo sapiens) [compound 209] is +++ (50%-75% = +++)

HLA-A*24 Peptide exchange (MHC class I binding score, peptide exchange yield) of 189 (WYVNGVNYF; listed as Homo sapiens) [compound 189] is ++ (20%-49% = ++)

HLA-A*24 Peptide exchange (MHC class I binding score, peptide exchange yield) of 179 (MYDSYWRQF; listed as Homo sapiens) [compound 179] is ++++ (> = 75% = ++++)

HLA-A*24 Peptide exchange (MHC class I binding score, peptide exchange yield) of 184 (VFQNFPLLF; listed as Homo sapiens) [compound 184] is ++++ (> = 75% = ++++)

HLA-A*24 Peptide exchange (MHC class I binding score, peptide exchange yield) of 160 (VYTLDIPVL; listed as Homo sapiens) [compound 160] is ++++ (> = 75% = ++++)

HLA-A*24 Peptide exchange (MHC class I binding score, peptide exchange yield) of 192 (SYALLTYMI; listed as Homo sapiens) [compound 192] is ++++ (> = 75% = ++++)

HLA-A*24 Peptide exchange (MHC class I binding score, peptide exchange yield) of 276 (VYGFQWRHF; listed as Homo sapiens) [compound 276] is ++++ (> = 75% = ++++)

HLA-A*24 Peptide exchange (MHC class I binding score, peptide exchange yield) of 193 (RFHPTPLLL; listed as Homo sapiens) [compound 193] is ++++ (> = 75% = ++++)

HLA-A*24 Peptide exchange (MHC class I binding score, peptide exchange yield) of 191 (VFKASKITF; listed as Homo sapiens) [compound 191] is +++ (50%-75% = +++)

###

biological target: HLA-A*02 (Homo sapiens, UniProt P04439, D140Y/D185E/D98H/E176V/E277Q/G131W/G231S/I119V/I121R/I166T/I218V/L300P/N151K/N90K/P208A/P217A/Q86G/Q94H/R138H/R169H); construct: made in house; assay: MHC binding assay, UV-ligand exchange with beta2m ELISA (peptide exchange yield); details: binding to HLA-A*02
endpoint_name: Peptide exchange (MHC class I binding score, peptide exchange yield)

Some entries whose results are on file:
substance: 255 (SLLHFTENL; listed as Homo sapiens) [compound 255]
assay_result: +++ (50%-75% = +++)

substance: 51 (LLFSRLCGA; listed as Homo sapiens) [compound 51]
assay_result: ++++ (> = 75% = ++++)

substance: 264 (KLFPQETLFL; listed as Homo sapiens) [compound 264]
assay_result: +++ (50%-75% = +++)

substance: 58 (YLLPLLPAL; listed as Homo sapiens) [compound 58]
assay_result: +++ (50%-75% = +++)

substance: 229 (AILAHLNTV; listed as Homo sapiens) [compound 229]
assay_result: ++++ (> = 75% = ++++)

substance: 33 (YIKTELISV; listed as Homo sapiens) [compound 33]
assay_result: +++ (50%-75% = +++)

substance: 29 (YLLDPSITL; listed as Homo sapiens) [compound 29]
assay_result: +++ (50%-75% = +++)

substance: 38 (FLGPRIIGL; listed as Homo sapiens) [compound 38]
assay_result: +++ (50%-75% = +++)

Peptide exchange (MHC class I binding score, peptide exchange yield) reading for 10 (GIAGSLKTV; listed as Homo sapiens) [compound 10] : +++ (50%-75% = +++)

Peptide exchange (MHC class I binding score, peptide exchange yield) reading for 248 (YLDRFLAGV; listed as Homo sapiens) [compound 248] : ++++ (> = 75% = ++++)

Peptide exchange (MHC class I binding score, peptide exchange yield) reading for 266 (YAIGLVMRL; listed as Homo sapiens) [compound 266] : +++ (50%-75% = +++)
